molecular target: TEAD1 (Homo sapiens, UniProt P28347); construct: endogenous in cells; assay: TEAD1-Luciferase reporter assay (MCF-7 cell-based TEAD1-Luc assay); conditions: cells treated with compound overnight, luciferase chemiluminescence readout
Sequence (P28347 whole entry): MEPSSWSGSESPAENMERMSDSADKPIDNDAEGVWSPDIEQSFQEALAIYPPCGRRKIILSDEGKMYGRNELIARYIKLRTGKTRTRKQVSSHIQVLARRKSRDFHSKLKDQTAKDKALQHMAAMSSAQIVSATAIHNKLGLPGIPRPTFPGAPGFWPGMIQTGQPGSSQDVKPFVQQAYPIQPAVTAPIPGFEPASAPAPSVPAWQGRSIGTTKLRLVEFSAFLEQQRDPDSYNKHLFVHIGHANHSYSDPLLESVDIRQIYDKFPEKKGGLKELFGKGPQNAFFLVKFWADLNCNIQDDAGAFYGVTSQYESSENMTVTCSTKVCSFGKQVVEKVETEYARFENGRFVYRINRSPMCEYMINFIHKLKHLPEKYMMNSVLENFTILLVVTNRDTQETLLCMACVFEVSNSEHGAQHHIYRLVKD
pIC50: −log10 of the molar value.
OBSERVABLE: pIC50

COMPOUND | OBSERVED_VALUE
C=CC(=O)NC1CCC(Oc2cccc(C(F)(F)F)c2)C1 (stereo not drawn) | 5.30 to 7.00

Respectfully, I request pIC50 for each entry included below.
1. C=CC(=O)Nc1cccc(Oc2ccc(C(F)(F)F)cc2)c1
2. C=CC(=O)Nc1ccc2c(c1)CCC/C2=N\OCCOCC
3. C=CC(=O)Nc1ccc(-c2cc(C(C)(C)C)on2)cc1
4. CCCCCO/N=C1\CCc2cc(NC(=O)/C=C/CN(C)C)ccc21
5. C=CC(=O)N1CC(Cc2ccc(C(F)(F)F)cc2)C1

OUTPUT:
1: ≥ 7.00; 2: ≥ 7.00; 3: 5.30 to 7.00; 4: ≥ 7.00; 5: 5.30 to 7.00

====

molecular target: TEAD1 (Homo sapiens); construct: endogenous in cells; test: TEAD1-Luciferase reporter assay (MCF-7 cell-based TEAD1-Luc assay); conditions: cells treated with compound overnight, luciferase chemiluminescence readout
OBSERVABLE: IC50

A selection of reference data follows.
COMPOUND | OBSERVED_VALUE
C=CC(=O)N[C@@H]1CC[C@@H](Oc2cccc(C(F)(F)F)c2)C1 [Compound 43] | 100 to 5000 nM
C=CC(=O)Nc1cccc(Oc2ccc(C(F)(F)F)cn2)c1 [Compound 14] | ≤ 100 nM
C=CC(=O)Nc1ccc2c(c1)CCC/C2=N\OCC(C)C [Compound 49] | ≤ 100 nM
C=CC(=O)Nc1cccc(Oc2cccc(OC)c2)c1 [Compound 9, N-(3-(3-methoxyphenoxy)phenyl)acrylamide] | ≤ 100 nM

INPUT: I am curious: what IC50 value has been reported for C=CC(=O)N1CC(Oc2ccc(C(F)(F)F)cc2)C1 [Compound 56] ?
OUTPUT: 100 to 5000 nM

====

molecular target: TEAD1 (Homo sapiens); construct: endogenous in cells; assay: TEAD1-Luciferase reporter assay (MCF-7 cell-based TEAD1-Luc assay); conditions: cells treated with compound overnight, luciferase chemiluminescence readout
pIC50: −log10 of the molar value.
What pIC50 was measured for each of the following?

COMPOUND | TARGET_SYSTEM | pIC50
C=CC(=O)Nc1cc(F)cc(Oc2ccc(C(F)(F)F)cc2)c1 [Compound 12] | TEAD1 (Homo sapiens) | ≥ 7.00
C=CC(=O)NC12CC(COc3cccc(C(F)(F)F)c3)(C1)C2 [Compound 62] | TEAD1 (Homo sapiens) | ≥ 7.00
C=CC(=O)Nc1cccc(Oc2cc(C(F)(F)F)ccn2)c1 [Compound 13] | TEAD1 (Homo sapiens) | ≥ 7.00
C=CC(=O)Nc1cc(Oc2cccc(C(F)(F)F)c2)ccc1F [Compound 37] | TEAD1 (Homo sapiens) | ≥ 7.00
C=CC(=O)Nc1ccc2c(OCCCCC)nccc2c1 [Compound 19] | TEAD1 (Homo sapiens) | ≥ 7.00
C=CC(=O)Nc1ccc(-c2cc(C(F)(F)F)sn2)cc1 [Compound 54] | TEAD1 (Homo sapiens) | ≥ 7.00
C=CC(=O)Nc1ccc2c(c1)CCC/C2=N\OCC [Compound 47] | TEAD1 (Homo sapiens) | ≥ 7.00
C=CC(=O)Nc1ccc(-c2cc(C(F)(F)F)no2)c(Cl)c1 [Compound 32] | TEAD1 (Homo sapiens) | ≥ 7.00

Respectfully, I request pIC50 for each entry included below.
1. C#Cc1cccc(Oc2ccc(NC(=O)C=C)cc2)c1 [Compound 3]
2. C=CC(=O)Nc1ccc(-n2cc(C(F)(F)F)nn2)c(Cl)c1 [Compound 34]

OUTPUT:
1: ≤ 5.30; 2: ≥ 7.00

====

target: TEAD1 (Homo sapiens); construct: endogenous in cells; assay: TEAD1-Luciferase reporter assay (MCF-7 cell-based TEAD1-Luc assay); conditions: cells treated with compound overnight, luciferase chemiluminescence readout
What IC50 was measured for each of the following?

A selection of reference data follows.
MOLECULE | OBSERVABLE | OBSERVED_VALUE
C=CC(=O)N1CC(NCc2cccc(C(F)(F)F)c2)C1 | IC50 | 100 to 5000 nM
C=CC(=O)Nc1ccc2c(c1)OCC/C2=N\OCCCCC | IC50 | ≤ 100 nM
C=CC(=O)Nc1ccc2cc(OCCCC)ccc2c1 | IC50 | ≤ 100 nM
C=CC(=O)Nc1ccc(-c2cc(CCCC)on2)cc1 | IC50 | ≤ 100 nM
C=CC(=O)Nc1ccc(-c2ccn(CCCCC)n2)cc1 | IC50 | ≤ 100 nM
C=CC(=O)Nc1ccc2c(Oc3ccc(C(F)(F)F)cn3)cccc2c1 | IC50 | ≤ 100 nM

Respectfully, I request IC50 for each entry included below.
1. C=CC(=O)Nc1ccc(-c2cc(C(F)(F)F)cnn2)cc1
2. C=CC(=O)Nc1ccc(-c2ccn(CC(F)(F)F)n2)cc1
3. C=CC(=O)NC1CC2(C1)CC(Oc1cccc(C(F)(F)F)c1)C2 (centres unmarked)
4. C=CC(=O)Nc1ccc(-c2cc(C(F)(F)F)on2)c(C)c1
5. C=CC(=O)Nc1ccc2c(c1)CCN(CCCCC)C2=O
6. C=CC(=O)Nc1cccc(Oc2csc(C(F)(F)F)c2)c1
7. C#Cc1cccc(Oc2cccc(NC(=O)C=C)c2)c1
8. C=CC(=O)Nc1ccc2c(OCCCCC)cccc2c1

OUTPUT:
100 to 5000 nM
100 to 5000 nM
≥ 5000 nM
≤ 100 nM
100 to 5000 nM
≤ 100 nM
100 to 5000 nM
≤ 100 nM

====

biological target: TEAD1 (Homo sapiens); construct: endogenous in cells; host or cells: MCF-7; assay: TEAD1-Luciferase reporter assay (MCF-7 cell-based TEAD1-Luc assay); settings: cells treated with compound overnight, luciferase chemiluminescence readout
pIC50: −log10 of the molar value.
OBSERVABLE: pIC50

Respectfully, I request pIC50 for each entry included below.
1. C=CC(=O)Nc1ccc(-c2noc(C(F)(F)F)n2)c(Cl)c1
2. C=CC(=O)Nc1ccc(-n2ncc(C(F)(F)F)n2)c(Cl)c1
3. C=CC(=O)Nc1cccc(OC2CCC(F)(F)CC2)c1
4. C=CC(=O)Nc1cccc(Oc2cccc(C(F)(F)F)c2)c1
5. C=CC(=O)NC1CCC(Oc2cc(C(F)(F)F)on2)C1 (stereo not drawn)
6. C=CC(=O)Nc1ccc(-c2cncc(C(F)(F)F)c2)cc1

OUTPUT:
["≥ 7.00", "≥ 7.00", "≥ 7.00", "≥ 7.00", "5.30 to 7.00", "≥ 7.00"]
